# target.or.system: D(3) dopamine receptor (Cricetulus griseus, UniProt A0A3Q0CXS4)
# Sequence (A0A3Q0CXS4 whole entry): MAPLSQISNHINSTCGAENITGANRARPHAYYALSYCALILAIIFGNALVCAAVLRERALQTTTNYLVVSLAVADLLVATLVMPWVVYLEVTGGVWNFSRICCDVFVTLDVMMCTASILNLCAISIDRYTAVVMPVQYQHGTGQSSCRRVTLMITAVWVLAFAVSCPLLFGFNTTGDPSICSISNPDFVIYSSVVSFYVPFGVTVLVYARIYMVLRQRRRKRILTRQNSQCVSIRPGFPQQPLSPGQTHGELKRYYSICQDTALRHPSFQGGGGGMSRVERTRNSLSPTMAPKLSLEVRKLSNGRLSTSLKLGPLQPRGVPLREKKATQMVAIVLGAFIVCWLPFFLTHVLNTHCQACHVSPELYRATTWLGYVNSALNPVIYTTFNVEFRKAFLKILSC
measure: Ki (µM)
Give the value, in units of µM, as a plain number.

Ask: Write down the reported Ki of Cc1cc2c(cc1Cl)N(C(=O)Nc1ccc(Oc3cccnc3C)nc1)CC2 , test system: D(3) dopamine receptor (Cricetulus griseus, UniProt A0A3Q0CXS4).
Result: 0.631
